Tested on: MEK2;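 also: KINOMEscan kinase panel screen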
Construct: gene MAP2K2
assay-context: concentration: 1 μM, replicates: in singlicate; n = 1
measured-parameter: %Inh (%)
Give just the number in %; leave the unit off.

The examples below pair each entry with its known result.
Cc1ccc(Oc2ccc(Nc3ncnc4cc[nH]c34)cc2C)cn1 :: 25
Cc1cc(Nc2nc(-c3cccc(C)n3)nc3ccccc23)ccn1 [GW872411] :: 9
COc1ccc(-c2cc3c(C)nc(N)nc3n([C@H]3CC[C@H](OCCO)CC3)c2=O)cn1 :: 0
COc1cc2nccc(Nc3cccc(Oc4ccccc4)c3)c2cc1OC.Cl [GW284543] :: 88
CCC(=O)c1c(-c2ccccc2)c2cc(Cl)ccc2c(=O)n1Cc1cc(S(C)(=O)=O)n(CCC(C)(C)O)n1 :: 19

Next up:
Recorded %Inh for O=C1NC(=O)C(c2ccccc2)=C1Nc1cccc(O)c1 [SB-390534] , please?
14
